- target-or-system: Human transferrin (Htf) (Homo sapiens)
- Sequence (P02787 20-698): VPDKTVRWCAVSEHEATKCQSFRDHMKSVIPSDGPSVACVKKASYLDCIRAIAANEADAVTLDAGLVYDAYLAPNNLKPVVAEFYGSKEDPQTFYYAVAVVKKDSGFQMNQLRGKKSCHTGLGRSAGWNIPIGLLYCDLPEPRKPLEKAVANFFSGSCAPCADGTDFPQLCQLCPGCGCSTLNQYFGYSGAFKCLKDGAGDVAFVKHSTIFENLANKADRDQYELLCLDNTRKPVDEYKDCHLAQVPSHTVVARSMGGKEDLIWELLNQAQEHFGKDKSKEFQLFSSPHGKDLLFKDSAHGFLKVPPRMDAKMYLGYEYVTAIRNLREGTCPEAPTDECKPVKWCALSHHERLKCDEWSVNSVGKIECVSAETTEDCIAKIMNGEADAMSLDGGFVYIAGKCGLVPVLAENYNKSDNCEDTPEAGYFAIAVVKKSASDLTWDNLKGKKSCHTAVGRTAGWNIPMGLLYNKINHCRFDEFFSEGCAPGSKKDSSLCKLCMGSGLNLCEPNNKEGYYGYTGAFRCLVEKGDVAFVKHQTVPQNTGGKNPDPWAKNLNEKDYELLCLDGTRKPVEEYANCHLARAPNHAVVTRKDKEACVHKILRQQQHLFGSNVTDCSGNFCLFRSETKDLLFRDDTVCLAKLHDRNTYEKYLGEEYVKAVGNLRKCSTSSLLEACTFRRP
pKd: −log10 of the molar value.
experimental-readout: pKd

>>> recorded_measurement("O=c1oc2c(O)c(O)cc3c(=O)oc4c(O)c(O)cc1c4c23")
5.84
